# Procedure Text: Inhibition of NS5A in HCV genotype 1b Con1 infected in human HuH7 replicon cells assessed as reduction in viral replication after 3 days by luciferase reporter gene assay
What log10 of EC50 was measured for each of the following?
Form field - Quantity: EC50; Unit: nM; Scale: log10

[in] Report log10 of EC50 for `COC[C@H]1C[C@@H](c2ncc(-c3ccc4c(c3)COc3cc5c(ccc6nc([C@@H]7C[C@H]8C[C@@H]8N7C(=O)[C@@H](NC(=O)OC)C(C)C)[nH]c65)cc3-4)[nH]2)N(C(=O)[C@H](NC(=O)OC)c2ccccc2)C1` please.
[out] -1.96

[in] Which log10 of EC50 is reported for this molecule? `COC(=O)N[C@H](C(=O)N1CCC[C@H]1c1ncc(-c2cc3c4c(c2)OCc2cc(-c5cnc([C@@H]6CCCN6C(=O)[C@@H](NC(=O)OC)C6CCC6)[nH]5)cc(c2-4)OC3)[nH]1)C1CCC1`
[out] -1.70

[in] Recorded log10 of EC50 of `COC(=O)N[C@H](C(=O)N1CCC[C@H]1c1ncc(-c2cc3c4c(c2)OCc2cc(-c5cnc([C@@H]6CCCN6C(=O)[C@H](NC(=O)OC)c6ccccc6)[nH]5)cc(c2-4)OC3)[nH]1)C1CCOCC1` , please.
[out] -0.50

[in] Query (molecule): `COC[C@H]1C[C@@H](c2nc(-c3ccc4c(c3)COc3cc5c(ccc6nc([C@@H]7CC[C@H](C)N7C(=O)[C@@H](NC(=O)OC)C(C)C)[nH]c65)cc3-4)c[nH]2)N(C(=O)[C@H](NC(=O)OC)c2ccccc2)C1` ; field requested: log10 of EC50
[out] -1.80

[in] Need log10 of EC50 of `COC(=O)N[C@H](C(=O)N1CCC[C@H]1c1ncc(-c2cc3c4c(ccc5cc(-c6cnc([C@@H]7CCCN7C(=O)[C@@H](NC(=O)OC)C(C)C)[nH]6)cc(c54)OC3)c2)[nH]1)C(C)C` , thanks.
[out] -1.66
